# merged literature set: IC50 with Indoleamine 2,3-dioxygenase 1 (Homo sapiens, UniProt P14902)

Checklist item: IC50 tested on Indoleamine 2,3-dioxygenase 1 (Homo sapiens, UniProt P14902), entry Cn1cc(-c2nccc3c(Nc4ccc(F)c(Cl)c4)c(N)oc23)cn1 , value? < 200 nM

Short answer please: IC50, Indoleamine 2,3-dioxygenase 1 (Homo sapiens, UniProt P14902), entry Nc1oc2c(-c3ccncc3)nc(F)cc2c1Nc1ccc(F)c(F)c1 < 200 nM

GET /values?readout=IC50&system=Indoleamine 2,3-dioxygenase 1 (Homo sapiens, UniProt P14902)&item= NS(=O)(=O)NC1(CONc2nonc2/C(=N/O)Nc2ccc(F)c(Br)c2)CC1 18 nM

Find IC50 (Indoleamine 2,3-dioxygenase 1 (Homo sapiens, UniProt P14902)) for the entry Nc1oc2c(-c3cc(F)cc(F)c3)nccc2c1Nc1ccc(F)c(Cl)c1 < 200 nM

Query for Indoleamine 2,3-dioxygenase 1 (Homo sapiens, UniProt P14902): what IC50 does the record show for Nc1oc2c(F)nccc2c1Nc1ccc(F)c(C(F)(F)F)c1 ? < 200 nM

Short answer please: IC50, Indoleamine 2,3-dioxygenase 1 (Homo sapiens, UniProt P14902), entry Cc1ccc(CN(C(=O)Nc2ccc(Cl)cc2)c2conc2C)o1 > 30000 nM

State its IC50 on Indoleamine 2,3-dioxygenase 1 (Homo sapiens, UniProt P14902): CC1=C(c2ccccc2)C(CC(=O)c2ccccc2)n2cncc21 (single isomer, unassigned) > 500 nM

Provide the documented IC50 with Indoleamine 2,3-dioxygenase 1 (Homo sapiens, UniProt P14902) as the system for Nc1oc2c(-c3ccncc3)nccc2c1Nc1ccc(F)c(C(F)(F)F)c1 < 200 nM

###

// note: IC50 values for Indoleamine 2,3-dioxygenase 1 (Homo sapiens, UniProt P14902) were reported in different studies

Which IC50 value belongs to O/N=C(\Nc1ccc(F)c(F)c1)c1nonc1NOC1CCCCO1 (centres unmarked) ? 142 nM

What value of measured IC50 is listed for Nc1oc2c(-c3cccc(C(F)(F)F)c3)nccc2c1Nc1ccc(F)c(Cl)c1 ? < 200 nM

// IC50 lookup, key: CC1=C(c2ccccc2)C(CC(O)c2cccc(Cl)c2)n2cncc21 (centres unmarked) < 500 nM

What does the record list as IC50 for CC1=C(c2ccccc2)C(CC(=O)c2cccc(-c3ccccc3)c2)n2cncc21 (centres unmarked) ? > 500 nM

Form field: reported IC50 of Nc1oc2c(-c3ccncc3)nccc2c1Nc1ccccc1Cl < 200 nM

###

Header: IC50 / UniProt P14902 / multiple publications

Fill in the blank: the reported IC50 of CC1=C(c2ccccc2)C(C[C@H](O)C2CCC(C(=O)NC3CCCCC3)CC2)n2cncc21 (stereo partly shown) is ____. < 0.5 µM

Tell me the measured IC50 of Nc1sc2ccccc2c1Nc1ccc(F)c(C(F)(F)F)c1 , please. < 0.2 µM

Report IC50 for Cc1cc(-c2cccc3c(Nc4ccccc4)c(N)sc23)ccn1 please. < 0.2 µM

I'd like to know its IC50. The compound in question is Cc1cc(-c2nc(F)cc3c(Nc4cccc(Cl)c4)c(N)oc23)ccn1 < 0.2 µM

Look up IC50 for this compound: CCS(=N)(=O)NCCNc1nonc1C(=NO)Nc1ccc(F)c(Br)c1 (stereo not shown) 0.0252 µM

Given the compound COC(=O)c1ccc(C(=O)CC2C(c3ccccc3)=C(C)c3cncn32)cc1 (single isomer, unassigned; isomer-i) , what is its reported IC50? < 0.5 µM

Consider the compound CCc1nccc2c(Nc3cccc(C(F)(F)F)c3)c(N)oc12 and give its measured IC50. < 0.2 µM

What does the data say about its IC50? Entry: CNC(=O)c1cc(-c2nccc3c(Nc4ccc(F)c(C(F)(F)F)c4)c(N)oc23)ccn1 < 0.2 µM

Requested field: IC50. Item: CC1=C(c2ccccc2)C(CC(O)C2CCN(C(=O)Cc3ccccc3)CC2)n2cncc21 (stereo not shown) < 0.5 µM

Bench note: what IC50 did Cc1cc(-c2nc(F)cc3c(Nc4ccc(F)cc4)c(N)oc23)ccn1 show? < 0.2 µM

Can you share its IC50? I mean this compound: Nc1oc2c(-c3ccc(F)c(F)c3)nccc2c1Nc1ccc(F)c(Cl)c1 < 0.2 µM

Form field: reported IC50 of CC1=C(c2ccccc2)C(CC(O)C2CCN(C(=O)c3cccnc3)CC2)n2cncc21 (stereo not shown) > 0.5 µM

Suppose we examine the compound CC1=C(c2ccccc2)C(CC(O)C2CCN(C(=O)c3ccccn3)CC2)n2cncc21 (stereo not shown) ; what IC50 value has been reported? > 0.5 µM
